- ASSAY_SYSTEM: PARP-1 enzyme (Homo sapiens)
- ASSAY_COMMENT: In vitro scintillation proximity assay (SPA) for PARP-1 inhibitory activity
- Format: biochemical
- CONDITION: [3H]-NAD+, biotinylated histones, nicked DNA; read-out: in vitro SPA assay PARP-1 pIC50 (converted)
The entries below are paired with their reported IC50.

SMILES_RECORD	IC50 (µM)
O=c1[nH]c(NCCN2CCC(Nc3nc4ccccc4c(=O)[nH]3)CC2)nc2ccccc12	0.0323
O=c1[nH]c(NCCN2CCN(c3n[nH]c4ccccc34)CC2)nc2ccc(Cl)cc12	0.00776
O=c1[nH]c(NCCN2CCC(c3n[nH]c4cc(F)ccc34)CC2)nc2ccccc12	0.0255
O=C(NC1CCN(CCCNc2nc3ccccc3c(=O)[nH]2)CC1)c1ccccc1	0.687

###

The entries below are paired with their reported IC50.
- ASSAY_SYSTEM: TANK-2 enzyme (Homo sapiens, UniProt Q9H2K2)
- Construct: made in house
- Sequence (Q9H2K2 whole entry): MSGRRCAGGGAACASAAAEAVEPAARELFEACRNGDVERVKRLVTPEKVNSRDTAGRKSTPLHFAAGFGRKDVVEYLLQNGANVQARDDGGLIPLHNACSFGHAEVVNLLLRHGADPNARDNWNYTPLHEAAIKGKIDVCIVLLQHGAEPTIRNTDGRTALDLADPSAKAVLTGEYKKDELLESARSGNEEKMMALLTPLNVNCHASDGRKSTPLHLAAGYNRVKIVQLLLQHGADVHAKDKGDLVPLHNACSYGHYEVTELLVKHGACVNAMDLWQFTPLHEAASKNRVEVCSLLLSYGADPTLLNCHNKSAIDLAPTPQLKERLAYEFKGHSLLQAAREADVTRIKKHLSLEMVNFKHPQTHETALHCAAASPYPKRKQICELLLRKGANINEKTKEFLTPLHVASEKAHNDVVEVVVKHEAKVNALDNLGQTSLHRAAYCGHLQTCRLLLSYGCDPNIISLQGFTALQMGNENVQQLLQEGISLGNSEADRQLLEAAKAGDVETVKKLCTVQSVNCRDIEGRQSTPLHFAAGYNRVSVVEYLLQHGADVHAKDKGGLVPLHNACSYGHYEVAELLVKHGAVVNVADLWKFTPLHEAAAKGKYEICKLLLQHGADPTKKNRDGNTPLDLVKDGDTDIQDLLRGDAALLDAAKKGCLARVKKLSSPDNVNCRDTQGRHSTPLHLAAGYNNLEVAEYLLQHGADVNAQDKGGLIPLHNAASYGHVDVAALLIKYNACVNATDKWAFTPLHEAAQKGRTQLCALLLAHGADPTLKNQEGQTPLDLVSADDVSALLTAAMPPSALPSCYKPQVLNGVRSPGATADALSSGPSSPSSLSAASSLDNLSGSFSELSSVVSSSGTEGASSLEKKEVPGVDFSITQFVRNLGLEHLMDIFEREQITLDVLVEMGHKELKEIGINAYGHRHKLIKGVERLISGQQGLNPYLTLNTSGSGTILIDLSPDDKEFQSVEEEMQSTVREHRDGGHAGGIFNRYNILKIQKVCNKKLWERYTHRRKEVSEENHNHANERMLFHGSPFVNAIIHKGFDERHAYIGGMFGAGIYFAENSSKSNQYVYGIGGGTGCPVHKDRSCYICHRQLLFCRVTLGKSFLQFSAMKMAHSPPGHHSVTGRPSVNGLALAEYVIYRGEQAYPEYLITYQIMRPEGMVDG
- ASSAY_COMMENT: In vitro scintillation proximity assay (SPA) for TANK-2 inhibitory activity
- Format: biochemical
- CONDITION: auto-poly(ADP-ribosyl)ation; 96-well plate results if available, otherwise 384-well; read-out: in vitro SPA assay TANK-2 pIC50 (converted)

SMILES_RECORD	IC50
O=c1[nH]c(NCCN2CCC(c3n[nH]c4cc(F)ccc34)CC2)nc2ccc(Cl)cc12	> 10 µM
CC1(C)Cc2cc(Cl)cc(C(=O)NC3CCN(CCCNc4nc(O)c5ccccc5n4)CC3)c2O1	> 10 µM
Nc1c(Cl)cc(C(=O)OCC2CCN(CCNc3nc4ccccc4c(=O)[nH]3)CC2)c2c1OCCO2	0.746 µM
CO[C@@H]1CN(CCCNc2nc(O)c3cc(Cl)ccc3n2)CC[C@@H]1NC(=O)c1cc(Cl)c(N)c2c1OC(C)(C)C2	> 10 µM

###

- ASSAY_SYSTEM: PARP-1 enzyme (Homo sapiens, UniProt P09874)
- Sequence (P09874 whole entry): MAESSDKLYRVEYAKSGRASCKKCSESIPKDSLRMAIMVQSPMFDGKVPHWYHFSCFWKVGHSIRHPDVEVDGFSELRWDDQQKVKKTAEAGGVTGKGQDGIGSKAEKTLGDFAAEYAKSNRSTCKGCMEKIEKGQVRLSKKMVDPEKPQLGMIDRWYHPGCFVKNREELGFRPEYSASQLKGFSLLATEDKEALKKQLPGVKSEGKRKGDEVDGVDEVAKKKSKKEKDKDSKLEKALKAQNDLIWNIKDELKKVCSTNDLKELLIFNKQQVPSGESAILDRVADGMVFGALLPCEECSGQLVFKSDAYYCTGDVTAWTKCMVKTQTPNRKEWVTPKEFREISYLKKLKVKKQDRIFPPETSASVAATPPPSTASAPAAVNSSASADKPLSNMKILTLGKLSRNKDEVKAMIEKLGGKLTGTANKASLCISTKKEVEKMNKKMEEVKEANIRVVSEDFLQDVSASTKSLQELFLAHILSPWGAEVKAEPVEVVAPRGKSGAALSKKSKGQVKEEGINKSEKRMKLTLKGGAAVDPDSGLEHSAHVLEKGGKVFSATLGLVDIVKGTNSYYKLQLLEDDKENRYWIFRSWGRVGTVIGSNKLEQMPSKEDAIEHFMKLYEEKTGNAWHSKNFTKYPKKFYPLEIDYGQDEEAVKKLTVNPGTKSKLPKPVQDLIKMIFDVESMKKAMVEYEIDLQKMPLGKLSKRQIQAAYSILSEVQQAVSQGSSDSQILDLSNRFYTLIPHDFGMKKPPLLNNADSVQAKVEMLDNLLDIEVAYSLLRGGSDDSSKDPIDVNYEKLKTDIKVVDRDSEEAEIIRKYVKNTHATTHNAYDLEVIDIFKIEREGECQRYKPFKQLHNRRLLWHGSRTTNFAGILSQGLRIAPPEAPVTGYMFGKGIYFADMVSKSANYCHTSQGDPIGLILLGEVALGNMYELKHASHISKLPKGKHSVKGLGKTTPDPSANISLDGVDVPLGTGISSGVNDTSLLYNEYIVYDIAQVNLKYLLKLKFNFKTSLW
- ASSAY_COMMENT: In vitro filtration assay for PARP-1 inhibitory activity
- Assay type: biochemical
- CONDITION: [32P]-NAD, histones, nicked DNA; read-out: in vitro filter assay PARP-1 pIC50 (converted)
Lab note - cut at 2000 nM for IC50: yes (1) if strictly below, no (0) if not.

SMILES_RECORD	CATEGORY
O=c1[nH]c(NCCCN2CCC(c3n[nH]c4cc(F)ccc34)CC2)nc2ccccc12	no (0)
O=C(c1ccc(F)cc1)C1CCN(CCNc2nc3ccccc3c(=O)[nH]2)CC1	yes (1)
O=c1nc(NCCCN2CCC(Nc3nccc4ccccc34)CC2)[nH]c2ccccc12	no (0)
O=c1[nH]c(NCCN2CCN(c3n[nH]c4cc(F)ccc34)CC2)nc2ccccc12	yes (1)
CO[C@H]1CN(CCCNc2nc3ccccc3c(=O)[nH]2)CC[C@H]1NC(=O)c1cc(Cl)cc2c1OC(C)(C)C2	no (0)
CCCCn1cc(C2CCN(CCCNc3nc4ccccc4c(=O)[nH]3)CC2)c2ccccc21	no (0)
